Test target: Gal(b1-3)[Fuc(a1-4)]GlcNAc(b1-3)Gal(b1-3)[Fuc(a1-4)]GlcNAc
Assay method text: glycan array binding signal (z-score within array); higher = stronger binding
Protocol conditions: glycan notation: IUPAC condensed, linker removed
Shown is part of a subset that was picked to be rich in the strongest signals.
Quantity: glycan array binding signal (z-score)
API doc: respond with a numeric literal and nothing else, no unit.

For the binder Gal 9 (Canis lupus) (protein) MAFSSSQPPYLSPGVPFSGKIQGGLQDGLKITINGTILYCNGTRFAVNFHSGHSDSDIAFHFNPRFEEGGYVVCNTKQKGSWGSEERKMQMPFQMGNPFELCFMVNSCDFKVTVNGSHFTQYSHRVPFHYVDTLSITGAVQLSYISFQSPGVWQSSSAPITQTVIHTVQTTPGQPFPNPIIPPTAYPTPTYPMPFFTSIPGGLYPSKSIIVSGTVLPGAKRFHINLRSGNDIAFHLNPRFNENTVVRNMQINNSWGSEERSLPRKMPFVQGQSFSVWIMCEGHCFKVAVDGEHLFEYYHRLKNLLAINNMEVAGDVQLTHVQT , give its measured glycan array binding signal (z-score) value. -0.315

meta.source: the supplement of paper PMC8728848
